experiment: Tacrolimus pharmacokinetic profiles and trough level monitoring before and after switch of booster from ritonavir to cobicistat in an HIV-infected kidney transplant recipient; type: in vivo, human; settings: human, plasma, oral, 0.5 mg, co-administered with darunavir/ritonavir 800/100 mg once daily; 1st pharmacokinetic profile
experimental.endpoint: Cmax (ng/mL)
Kindly answer with a numeric value in ng/mL, unit omitted.

Problem: // Cmax lookup, key: "C=CC[C@@H]1/C=C(\C)C[C@H](C)C[C@H](OC)[C@H]2O[C@@](O)(C(=O)C(=O)N3CCCC[C@H]3C(=O)O[C@H](/C(C)=C/[C@@H]3CC[C@@H](O)[C@H](OC)C3)[C@H](C)[C@@H](O)CC1=O)[C@H](C)C[C@@H]2OC"
Solution: 15.1

Every entry's value here was drawn from paper PMC10163738.
